# target.of.assay: T1, HMMW micropeptide (recombinant, purified from Escherichia coli BL21) (human)
# T1 construct: also called purified HMMW micropeptide; human HMMW micropeptide
# T1 peptide: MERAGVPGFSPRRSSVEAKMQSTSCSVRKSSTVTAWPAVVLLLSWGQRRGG
# assay.overview: indirect ELISA, HMMW micropeptide coated at 1 ug/ml, antibody dilution 1:3.125K
measured.quantity: ELISA reading at antibody dilution 1:3.125K

[[record]]
binder = "Anti-HMMW antibody-2 (antibody, V domains shown, Mouse monoclonal antibody from a BALB/c x SP2/0 hybridoma; also called anti-HMMW-2 antibody) VH: EVKLEESGGGLVQPGGSMKVSCVGSGFTFSNYWMNWVRQSPEKGLEWVAEIRLKSNNYATHYAESVKGRFTISRDDSKRSVYLQMNNLRVEDTGIYYCTTEAVDYWGQGTSVTVSS VL: DIVMTQAAFSNPVTLGTSASISCRSSKSLLHSNGITYLYWYLQKPGQSPQLLIYQMSNLASGVPDRFSSSGSGTDFTLRISRVEAEDVGVYYCAQNLELPTFGGGTKLEIKR"
recorded_measurement = 3.33


Input line: What value of ELISA reading at antibody dilution 1:3.125K has been reported for the following binder? Anti-HMMW antibody-4 (antibody, V domains shown, Mouse monoclonal antibody from a BALB/c x SP2/0 hybridoma; also called anti-HMMW-4 antibody) VH: EVKLEESGGGLVQPGGSMKLSCVASGFTFSDYWMNWVRQSPEKGLEWLTEIRLKSNNYLTHYAESVKGRFTISRDDSKSSVYLQMNNLRAEDTGIYYCSVETMDYWGQGISVTVSS VL: QAVVTQESALTTSSGETVTLTCRSSTGAVTTSNYANWVQEKPDHLFTGLIRGTNNRAPGVPARFSGSLIGDKAALTITGAQTEDEAIYFCALWYSNHWVFGGGTKLTVL
Output line: 3.52
